Tested on: 519858-162-T-J1-PDC complex spheroid growth, % test/control
Test: Anticancer human tumor 519858-162-T-J1-PDC patient-derived colon adenocarcinoma cell line growth inhibition [Asc]
Conditions: second compound 1 µM; first compound 0.0316 µM; active compounds read low
Assignment: determine reported viability, T/C for the given compounds.
Answers are plain numbers, in %.

Reference set (2 entries):
- COMPOUND: "Cn1ncnc1[C@H]1c2n[nH]c(=O)c3cc(F)cc(c23)N[C@@H]1c1ccc(F)cc1 + CNC(C)C(=O)NC1CN(S(=O)(=O)c2cccc(S(=O)(=O)N3CCC4CCC(C(=O)NC(c5ccccc5)c5ccccc5)N4C(=O)C(NC(=O)C(C)NC)C3)c2)CCC2CCC(C(=O)NC(c3ccccc3)c3ccccc3)N2C1=O"
  viability, T/C [%]: 90.6
- COMPOUND: "COc1c(OCCCN2CCOCC2)ccc2c3n(c(=NC(=O)c4cnc(N)nc4)nc12)CCN3 + Cc1c(S(C)(=O)=O)c(-c2cc(F)cc(N3CCN(c4ccc(NS(=O)(=O)c5ccc(NC(CCN6CCC(C(=O)OCCCP(=O)(O)O)CC6)CSc6ccccc6)c(S(=O)(=O)C(F)(F)F)c5)cc4)CC3)c2)c(-c2ccc(Cl)cc2)n1C(C)C"
  viability, T/C [%]: 74.7

Alright, here's another compound for you.
Prompt line: # return viability, T/C for C=C(F)C(=O)N1CCN(c2nc(OCC3CCCN3C)nc3c2CCN(c2cccc4cccc(Cl)c24)C3)CC1CC#N (stereo not drawn) + Cc1c(S(C)(=O)=O)c(-c2cc(F)cc(N3CCN(c4ccc(NS(=O)(=O)c5ccc(NC(CCN6CCC(C(=O)OCCCP(=O)(O)O)CC6)CSc6ccccc6)c(S(=O)(=O)C(F)(F)F)c5)cc4)CC3)c2)c(-c2ccc(Cl)cc2)n1C(C)C , test system: 519858-162-T-J1-PDC complex spheroid growth, % test/control
Response line: 102

###

Tested on: 519858-162-T-J1-PDC complex spheroid growth, % test/control
Assay: Anticancer human tumor 519858-162-T-J1-PDC cell line growth inhibition [Asc];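 also: seven day drug exposure begun three days after spheroid seeding; 100% = DMSO vehicle wells and lower values mean less viable spheroid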
Conditions: second compound 3.16 µM; first compound 1 µM; active compounds read low
ENDPOINT_NAME: viability, T/C (%)
Answers are plain numbers, in %.

Reference set (3 entries):
- COMPOUND: "COc1c(OCCCN2CCOCC2)ccc2c3n(c(=NC(=O)c4cnc(N)nc4)nc12)CCN3 + Cc1c(S(C)(=O)=O)c(-c2cc(F)cc(N3CCN(c4ccc(NS(=O)(=O)c5ccc(NC(CCN6CCC(C(=O)OCCCP(=O)(O)O)CC6)CSc6ccccc6)c(S(=O)(=O)C(F)(F)F)c5)cc4)CC3)c2)c(-c2ccc(Cl)cc2)n1C(C)C"
  DISPLAY_UNIT: "%"
  viability, T/C: 55.6
- COMPOUND: "C=CC(=O)N1CCN(c2nc(=O)n(-c3c(C)ccnc3C(C)C)c3nc(-c4c(O)cccc4F)c(F)cc23)C(C)C1 (stereo not drawn) + Cc1c(S(C)(=O)=O)c(-c2cc(F)cc(N3CCN(c4ccc(NS(=O)(=O)c5ccc(NC(CCN6CCC(C(=O)OCCCP(=O)(O)O)CC6)CSc6ccccc6)c(S(=O)(=O)C(F)(F)F)c5)cc4)CC3)c2)c(-c2ccc(Cl)cc2)n1C(C)C"
  DISPLAY_UNIT: "%"
  viability, T/C: 60.6
- COMPOUND: "O=C(c1ccc(F)c(F)c1Nc1ccc(I)cc1F)N1CC(O)([C@@H]2CCCCN2)C1 + Cc1c(S(C)(=O)=O)c(-c2cc(F)cc(N3CCN(c4ccc(NS(=O)(=O)c5ccc(NC(CCN6CCC(C(=O)OCCCP(=O)(O)O)CC6)CSc6ccccc6)c(S(=O)(=O)C(F)(F)F)c5)cc4)CC3)c2)c(-c2ccc(Cl)cc2)n1C(C)C"
  DISPLAY_UNIT: "%"
  viability, T/C: 12.9

Give one value of viability, T/C per listed compound.
1. C#Cc1c(F)ccc2cc(O)cc(-c3ncc4c(N5CC6CCC(C5)N6)nc(OCC56CCCN5CC(F)C6)nc4c3F)c12 (stereo not drawn) + Cc1c(S(C)(=O)=O)c(-c2cc(F)cc(N3CCN(c4ccc(NS(=O)(=O)c5ccc(NC(CCN6CCC(C(=O)OCCCP(=O)(O)O)CC6)CSc6ccccc6)c(S(=O)(=O)C(F)(F)F)c5)cc4)CC3)c2)c(-c2ccc(Cl)cc2)n1C(C)C
2. O=C(c1cc(Cc2n[nH]c(=O)c3ccccc23)ccc1F)N1CCN(C(=O)C2CC2)CC1 + Cc1c(S(C)(=O)=O)c(-c2cc(F)cc(N3CCN(c4ccc(NS(=O)(=O)c5ccc(NC(CCN6CCC(C(=O)OCCCP(=O)(O)O)CC6)CSc6ccccc6)c(S(=O)(=O)C(F)(F)F)c5)cc4)CC3)c2)c(-c2ccc(Cl)cc2)n1C(C)C
3. CCN1CCN(Cc2ccc(Nc3ncc(F)c(-c4cc(F)c5nc(C)n(C(C)C)c5c4)n3)nc2)CC1 + Cc1c(S(C)(=O)=O)c(-c2cc(F)cc(N3CCN(c4ccc(NS(=O)(=O)c5ccc(NC(CCN6CCC(C(=O)OCCCP(=O)(O)O)CC6)CSc6ccccc6)c(S(=O)(=O)C(F)(F)F)c5)cc4)CC3)c2)c(-c2ccc(Cl)cc2)n1C(C)C
4. C=C(F)C(=O)N1CCN(c2nc(OCC3CCCN3C)nc3c2CCN(c2cccc4cccc(Cl)c24)C3)CC1CC#N (stereo not drawn) + Cc1c(S(C)(=O)=O)c(-c2cc(F)cc(N3CCN(c4ccc(NS(=O)(=O)c5ccc(NC(CCN6CCC(C(=O)OCCCP(=O)(O)O)CC6)CSc6ccccc6)c(S(=O)(=O)C(F)(F)F)c5)cc4)CC3)c2)c(-c2ccc(Cl)cc2)n1C(C)C
5. CNC(C)C(=O)NC1CN(S(=O)(=O)c2cccc(S(=O)(=O)N3CCC4CCC(C(=O)NC(c5ccccc5)c5ccccc5)N4C(=O)C(NC(=O)C(C)NC)C3)c2)CCC2CCC(C(=O)NC(c3ccccc3)c3ccccc3)N2C1=O (stereo not drawn) + Cc1c(S(C)(=O)=O)c(-c2cc(F)cc(N3CCN(c4ccc(NS(=O)(=O)c5ccc(NC(CCN6CCC(C(=O)OCCCP(=O)(O)O)CC6)CSc6ccccc6)c(S(=O)(=O)C(F)(F)F)c5)cc4)CC3)c2)c(-c2ccc(Cl)cc2)n1C(C)C

Response line:
[57.3, 84.1, 57.2, 61.1, 75]

These entries and their values trace back to PubChem BioAssay AID1963421.
